Target: human PAH with the R408W mutation (A375 R408W cells) (Homo sapiens, UniProt P00439, R408W)
Construct: expressed in transfected cells
Sequence (P00439 1-452 R408W): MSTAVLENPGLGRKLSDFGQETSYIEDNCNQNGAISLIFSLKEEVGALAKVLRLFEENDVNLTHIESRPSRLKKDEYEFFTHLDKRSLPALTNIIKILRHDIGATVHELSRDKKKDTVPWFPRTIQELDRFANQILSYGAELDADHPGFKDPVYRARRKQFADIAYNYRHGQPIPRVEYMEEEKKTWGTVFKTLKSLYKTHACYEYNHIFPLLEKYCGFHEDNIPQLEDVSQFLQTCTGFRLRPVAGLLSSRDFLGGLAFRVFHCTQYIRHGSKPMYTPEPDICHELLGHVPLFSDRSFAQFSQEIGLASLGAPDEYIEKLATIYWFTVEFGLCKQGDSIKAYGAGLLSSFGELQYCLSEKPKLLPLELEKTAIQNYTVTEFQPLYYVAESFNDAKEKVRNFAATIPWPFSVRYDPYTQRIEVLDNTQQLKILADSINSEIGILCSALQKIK
Assay: Cell Based Phenylalanine Flux Assay
Conditions: A375 cells expressing R408W PAH; 24 hrs with compound, then 20 μM sepiapterin and 800 μM 13C9,15N-Phenylalanine for 4 hours; 13C-Tyrosine by LC-MS; average where tested multiple times
experimental.endpoint: AC50

compound	AC50
Cc1cccc2nc(C3c4nc[nH]c4CCN3C(=O)c3cnn4cc(N5CCC(O)CC5)ccc34)oc12 (stereo not drawn)	1 to 5 µM

Sample Cc1ccc2oc(C3c4nc[nH]c4CCN3C(=O)c3cnn4cc(CCN(C)C)ccc34)nc2c1 (stereo not drawn) ; AC50 observed: 1 to 5 µM

Sample O=C(c1ccn(-c2ccccn2)n1)N1CCc2[nH]cnc2C1c1nc2cccc(F)c2o1 (stereo not drawn) ; AC50 observed: ≥ 5 µM

Sample CC(C)(O)c1noc(C(=O)N2CCc3[nH]cnc3C2c2nc3ccc(F)cc3o2)n1 (stereo not drawn) ; AC50 observed: ≥ 5 µM

Sample Cc1nc([C@H](C)O)oc1C(=O)N1CCc2[nH]cnc2C1c1nc2cc(F)ccc2o1 (single isomer, unassigned) ; AC50 observed: 1 to 5 µM

Sample N#Cc1nc(N2CCC(F)CC2)oc1C(=O)N1CCc2[nH]cnc2C1c1nc2cc(F)ccc2o1 (stereo not drawn) ; AC50 observed: ≥ 5 µM

Sample CN1C2CCC1CN(c1ccc3c(C(=O)N4CCc5[nH]cnc5C4c4nc5cc(F)ccc5o4)cnn3c1)C2 (single isomer, unassigned) ; AC50 observed: ≥ 5 µM

Sample CNc1ccc2c(C(=O)N3CCc4[nH]cnc4C3c3nc4cc(F)ccc4o3)cnn2c1 (stereo not drawn) ; AC50 observed: 1 to 5 µM

Sample Cn1nc(C(F)F)nc1C(=O)N1CCc2[nH]cnc2C1c1nc2ccc(F)cc2o1 (stereo not drawn) ; AC50 observed: 1 to 5 µM

Sample Cc1ccc2oc(C3c4nc[nH]c4CCN3C(=O)c3nc(C)nn3C)nc2c1 (stereo not drawn) ; AC50 observed: ≥ 5 µM

Sample Cc1nc(CN(C)C)oc1C(=O)N1CCc2[nH]cnc2C1c1nc2cc(F)ccc2o1 (stereo not drawn) ; AC50 observed: ≥ 5 µM
